The reported measurements were obtained from patent EP4768489A1.

TARGET OR SYSTEM: AR in LNCaP (T878A) cells (Homo sapiens, UniProt P10275, T878A)
Construct: Assay on degradation activity for AR in LNCaP (T878A) cells; endogenous in cells; host or cells: LNCaP cells
Sequence (P10275 whole entry T878A): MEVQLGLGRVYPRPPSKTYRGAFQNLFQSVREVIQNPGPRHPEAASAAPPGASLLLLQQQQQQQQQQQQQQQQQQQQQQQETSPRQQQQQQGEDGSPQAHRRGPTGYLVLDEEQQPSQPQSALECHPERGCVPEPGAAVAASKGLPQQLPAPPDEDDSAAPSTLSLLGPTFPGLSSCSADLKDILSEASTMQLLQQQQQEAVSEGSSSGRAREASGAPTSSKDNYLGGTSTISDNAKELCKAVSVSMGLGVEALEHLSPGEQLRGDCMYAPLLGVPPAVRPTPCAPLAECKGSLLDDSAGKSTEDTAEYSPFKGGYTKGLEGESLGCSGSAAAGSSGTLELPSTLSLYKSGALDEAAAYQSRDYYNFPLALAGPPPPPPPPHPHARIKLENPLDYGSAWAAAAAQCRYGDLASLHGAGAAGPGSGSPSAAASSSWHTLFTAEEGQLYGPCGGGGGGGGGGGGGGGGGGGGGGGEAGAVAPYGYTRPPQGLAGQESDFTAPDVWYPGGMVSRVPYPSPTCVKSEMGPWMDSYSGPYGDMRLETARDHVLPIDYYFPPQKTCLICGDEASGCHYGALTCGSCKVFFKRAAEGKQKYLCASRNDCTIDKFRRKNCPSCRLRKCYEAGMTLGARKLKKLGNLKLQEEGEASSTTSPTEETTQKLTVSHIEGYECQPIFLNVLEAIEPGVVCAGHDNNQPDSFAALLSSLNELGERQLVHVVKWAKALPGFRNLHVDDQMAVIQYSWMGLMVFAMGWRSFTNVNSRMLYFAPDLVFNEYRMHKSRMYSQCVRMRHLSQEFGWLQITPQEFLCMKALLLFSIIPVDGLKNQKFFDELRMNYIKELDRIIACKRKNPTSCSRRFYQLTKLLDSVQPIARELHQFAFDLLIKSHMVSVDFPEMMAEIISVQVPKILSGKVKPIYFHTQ
ASSAY PROTOCOL: Assay on degradation activity for AR in LNCaP (T878A) cells (HTRF)
Type: cell-based
MEASUREMENT CONTEXT: maximum degradation rate, 24 h
REPORTED PROPERTY: Dmax

Using the record for COc1cc(O[C@H]2C(C)(C)[C@H](NC(=O)c3ccc(N4CCC(CN5CCc6c(ccc7c(C8CCC(=O)NC8=O)noc67)C5)CC4)nc3)C2(C)C)ccc1C#N (stereo partly drawn) , report its Dmax.
> 90%

Also COc1cc(O[C@H]2C(C)(C)[C@H](NC(=O)c3ccc(N4CCC(CN5CCc6c(ccc7c(C8CCC(=O)NC8=O)noc67)C5)CC4)cn3)C2(C)C)ccc1C#N (stereo partly drawn) , if possible.
> 90%

Also COc1cc(O[C@H]2C(C)(C)[C@H](NC(=O)c3cnc(N4CCC(CN5CCc6c(ccc7c(C8CCC(=O)NC8=O)noc67)C5)CC4)cn3)C2(C)C)ccc1C#N (stereo partly drawn) , if possible.
> 90%

----------
TARGET OR SYSTEM: AR in MDA-PCA-2B (L702H\T878A) cells (Homo sapiens, UniProt P10275, L702H/T878A)
Construct: Assay on degradation activity for AR in MDA-PCA-2B (L702H\T878A) cells; endogenous in cells; host or cells: MDA-PCA-2B cells
Sequence (P10275 whole entry L702H/T878A): as the sequence (P10275 whole entry T878A) above, with L702H counted along it
ASSAY PROTOCOL: Assay on degradation activity for AR in MDA-PCA-2B (L702H\T878A) cells (HTRF)
Assay type: cell-based
MEASUREMENT CONTEXT: AR degradation, 24 h
REPORTED PROPERTY: DC50

Using the record for COc1cc(O[C@H]2C(C)(C)[C@H](NC(=O)c3cnc(N4CCC(CN5CCc6c(ccc7c(C8CCC(=O)NC8=O)noc67)C5)CC4)nc3)C2(C)C)ccc1C#N (stereo partly drawn) [Compound 4] , report its DC50.
< 500 nM

Also COc1cc(O[C@H]2C(C)(C)[C@H](NC(=O)c3ccc(N4CCC(CN5CCc6ccc7c(C8CCC(=O)NC8=O)noc7c6C5)CC4)nc3)C2(C)C)ccc1C#N (stereo partly drawn) [Compound 12] , if possible.
< 500 nM

Also COc1cc(O[C@H]2C(C)(C)[C@H](NC(=O)c3ccc(N4CCC(CN5CCc6c(ccc7c(C8CCC(=O)NC8=O)noc67)C5)CC4)cc3)C2(C)C)ccc1C#N (stereo partly drawn) [Compound 1] , if possible.
< 500 nM

----------
ASSAY PROTOCOL: Mouse pharmacokinetics
MEASUREMENT CONTEXT: ICR, mouse, plasma, po, 10 mg/kg
REPORTED PROPERTY: half-life (h)
Write the answer as a number in h, unit excluded.

Using the record for COc1cc(O[C@H]2C(C)(C)[C@H](NC(=O)c3ccc(N4CCC(CN5CCc6ccc7c(C8CCC(=O)NC8=O)noc7c6CC5)CC4)nc3)C2(C)C)ccc1C#N (stereo partly shown) , report its half-life.
8.3

----------
ASSAY PROTOCOL: Mouse pharmacokinetics
MEASUREMENT CONTEXT: ICR, mouse, plasma, po, 10 mg/kg
REPORTED PROPERTY: Cmax
Note to self: number, then unit, no commentary.

Using the record for COc1cc(O[C@H]2C(C)(C)[C@H](NC(=O)c3ccc(N4CCC(CN5CCc6ccc7c(C8CCC(=O)NC8=O)noc7c6CC5)CC4)nc3)C2(C)C)ccc1C#N (stereo partly shown) , report its Cmax.
1390 ng/mL

----------
ASSAY PROTOCOL: in vivo
MEASUREMENT CONTEXT: mouse, iv, 1 mg/kg
Rule: Met for AUC at 48 h not less than 5000 ng·h/mL, Not met for anything less.

# bool: AUC at 48 h of COc1cc(O[C@H]2C(C)(C)[C@H](NC(=O)c3cnc(N4CCC(CN5CCc6c(ccc7c(C8CCC(=O)NC8=O)noc67)C5)CC4)cn3)C2(C)C)ccc1C#N (some centres unmarked) [Compound 5] >= 5000 ng·h/mL
Not met

Also COc1cc(O[C@H]2C(C)(C)[C@H](NC(=O)c3ccc(N4CCC(CN5CCc6ccc7c(C8CCC(=O)NC8=O)noc7c6CC5)CC4)cc3)C2(C)C)ccc1C#N (some centres unmarked) [Compound 10] , if possible.
Met

Also COc1cc(O[C@H]2C(C)(C)[C@H](NC(=O)c3ccc(N4CCC(CN5CCc6c(ccc7c(C8CCC(=O)NC8=O)noc67)C5)CC4)cc3)C2(C)C)ccc1C#N (some centres unmarked) [Compound 1] , if possible.
Met

Also COc1cc(O[C@H]2C(C)(C)[C@H](NC(=O)c3ccc(N4CCC(CN5Cc6ccc7c(C8CCC(=O)NC8=O)noc7c6C5)CC4)cc3)C2(C)C)ccc1C#N (some centres unmarked) [Compound 8] , if possible.
Met

Also COc1cc(O[C@H]2C(C)(C)[C@H](NC(=O)c3cnc(N4CCC(CN5CCc6c(ccc7c(C8CCC(=O)NC8=O)noc67)C5)CC4)nc3)C2(C)C)ccc1C#N (some centres unmarked) [Compound 4] , if possible.
Met

----------
TARGET OR SYSTEM: AR in VCaP cells (Homo sapiens)
Construct: Assay on degradation activity for AR in VCaP cells; endogenous in cells; host or cells: VCaP cells
ASSAY PROTOCOL: Assay on degradation activity for AR in VCaP cells (HTRF human androgen receptor detection kit)
Format: cell-based
MEASUREMENT CONTEXT: maximum degradation rate, 24 h
Please provide measured Dmax for the entries that follow.

Using the record for COc1cc(O[C@H]2C(C)(C)[C@H](NC(=O)c3ccc(N4CCC(CN5Cc6ccc7c(C8CCC(=O)NC8=O)noc7c6C5)CC4)nc3)C2(C)C)ccc1C#N (stereo partly drawn) , report its Dmax.
> 75%

Also COc1cc(O[C@H]2C(C)(C)[C@H](NC(=O)c3ccc(N4CCC(CN5CCc6ccc7c(C8CCC(=O)NC8=O)noc7c6CC5)CC4)cc3)C2(C)C)ccc1C#N (stereo partly drawn) , if possible.
> 75%

Also COc1cc(O[C@H]2C(C)(C)[C@H](NC(=O)c3ccc(N4CCC(CN5CCc6c(ccc7c(C8CCC(=O)NC8=O)noc67)C5)CC4)nc3)C2(C)C)ccc1C#N (stereo partly drawn) , if possible.
> 75%

Also COc1cc(O[C@H]2C(C)(C)[C@H](NC(=O)c3cnc(N4CCC(CN5CCc6c(ccc7c(C8CCC(=O)NC8=O)noc67)C5)CC4)nc3)C2(C)C)ccc1C#N (stereo partly drawn) , if possible.
> 75%

Also COc1cc(O[C@H]2C(C)(C)[C@H](NC(=O)c3ccc(N4CCC(CN5CCc6c(ccc7c(C8CCC(=O)NC8=O)noc67)C5)CC4)cc3)C2(C)C)ccc1C#N (stereo partly drawn) , if possible.
> 75%

Also COc1cc(O[C@H]2C(C)(C)[C@H](NC(=O)c3cnc(N4CCC(CN5CCc6c(ccc7c(C8CCC(=O)NC8=O)noc67)C5)CC4)cn3)C2(C)C)ccc1C#N (stereo partly drawn) , if possible.
> 75%

Also COc1cc(O[C@H]2C(C)(C)[C@H](NC(=O)c3ccc(N4CCC(CN5CCc6ccc7c(C8CCC(=O)NC8=O)noc7c6CC5)CC4)nc3)C2(C)C)ccc1C#N (stereo partly drawn) , if possible.
> 75%

Also COc1cc(O[C@H]2C(C)(C)[C@H](NC(=O)c3ccc(N4CCC(CN5CCc6c(ccc7c(C8CCC(=O)NC8=O)noc67)C5)CC4)nn3)C2(C)C)ccc1C#N (stereo partly drawn) , if possible.
> 75%

Also COc1cc(O[C@H]2C(C)(C)[C@H](NC(=O)c3ccc(N4CCC(CN5Cc6ccc7c(C8CCC(=O)NC8=O)noc7c6C5)CC4)cc3)C2(C)C)ccc1C#N (stereo partly drawn) , if possible.
> 75%

----------
ASSAY PROTOCOL: in vivo
MEASUREMENT CONTEXT: mouse, iv, 1 mg/kg
Please provide measured Vd for the entries that follow.
Write the answer as a number in L/kg, unit excluded.

Using the record for COc1cc(O[C@H]2C(C)(C)[C@H](NC(=O)c3ccc(N4CCC(CN5Cc6ccc7c(C8CCC(=O)NC8=O)noc7c6C5)CC4)cc3)C2(C)C)ccc1C#N (some centres unmarked) [Compound 8] , report its Vd.
1.1

Also COc1cc(O[C@H]2C(C)(C)[C@H](NC(=O)c3ccc(N4CCC(CN5CCc6ccc7c(C8CCC(=O)NC8=O)noc7c6CC5)CC4)cc3)C2(C)C)ccc1C#N (some centres unmarked) [Compound 10] , if possible.
3.1

Also COc1cc(O[C@H]2C(C)(C)[C@H](NC(=O)c3ccc(N4CCC(CN5CCc6c(ccc7c(C8CCC(=O)NC8=O)noc67)C5)CC4)cc3)C2(C)C)ccc1C#N (some centres unmarked) [Compound 1] , if possible.
2.13

Also COc1cc(O[C@H]2C(C)(C)[C@H](NC(=O)c3cnc(N4CCC(CN5CCc6c(ccc7c(C8CCC(=O)NC8=O)noc67)C5)CC4)nc3)C2(C)C)ccc1C#N (some centres unmarked) [Compound 4] , if possible.
2.14

Also COc1cc(O[C@H]2C(C)(C)[C@H](NC(=O)c3cnc(N4CCC(CN5CCc6c(ccc7c(C8CCC(=O)NC8=O)noc67)C5)CC4)cn3)C2(C)C)ccc1C#N (some centres unmarked) [Compound 5] , if possible.
3.79
